assay.target: Tyrosine-protein kinase JAK2 (Homo sapiens, UniProt O60674)
Sequence (O60674 whole entry): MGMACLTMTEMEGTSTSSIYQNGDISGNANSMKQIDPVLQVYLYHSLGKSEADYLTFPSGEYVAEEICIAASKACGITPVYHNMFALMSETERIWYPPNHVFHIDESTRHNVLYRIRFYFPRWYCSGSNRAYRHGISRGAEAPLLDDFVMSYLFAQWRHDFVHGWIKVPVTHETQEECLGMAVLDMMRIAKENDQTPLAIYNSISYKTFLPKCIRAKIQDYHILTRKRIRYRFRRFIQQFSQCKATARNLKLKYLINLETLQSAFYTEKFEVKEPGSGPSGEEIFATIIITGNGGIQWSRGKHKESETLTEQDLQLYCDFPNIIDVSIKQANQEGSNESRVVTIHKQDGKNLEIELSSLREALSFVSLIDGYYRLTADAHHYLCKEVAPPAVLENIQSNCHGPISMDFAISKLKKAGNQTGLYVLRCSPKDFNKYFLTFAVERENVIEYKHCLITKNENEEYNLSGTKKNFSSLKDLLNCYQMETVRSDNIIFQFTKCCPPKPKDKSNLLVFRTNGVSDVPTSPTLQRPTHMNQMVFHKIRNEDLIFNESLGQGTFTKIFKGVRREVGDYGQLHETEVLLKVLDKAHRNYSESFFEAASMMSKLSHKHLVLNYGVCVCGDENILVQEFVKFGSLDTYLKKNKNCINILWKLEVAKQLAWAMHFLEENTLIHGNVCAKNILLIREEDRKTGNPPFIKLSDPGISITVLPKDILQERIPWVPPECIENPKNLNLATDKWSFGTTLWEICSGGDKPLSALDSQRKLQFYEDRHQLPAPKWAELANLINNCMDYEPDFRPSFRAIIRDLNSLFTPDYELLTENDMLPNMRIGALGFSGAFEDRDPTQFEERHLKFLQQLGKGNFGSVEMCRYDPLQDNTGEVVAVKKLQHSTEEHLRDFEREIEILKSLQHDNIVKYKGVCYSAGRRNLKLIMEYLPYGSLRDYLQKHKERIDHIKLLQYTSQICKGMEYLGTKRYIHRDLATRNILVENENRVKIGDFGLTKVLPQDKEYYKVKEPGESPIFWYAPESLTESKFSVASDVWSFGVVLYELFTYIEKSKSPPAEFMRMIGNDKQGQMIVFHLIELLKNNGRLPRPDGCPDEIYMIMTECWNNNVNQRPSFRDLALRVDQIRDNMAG
protocol: Inhibition of recombinant epitope-tagged JAK2 (808 to 1132) (unknown origin) using LPLDKDYYVVREPGQ as substrate by beta-countiing analysis in presence of 33P-gamma-ATP
property: IC50

Recall and state the measured IC50 for "Cc1ccc(Cl)cc1-n1cc(-c2ccnc(N)n2)cn1" .
950 nM

Kindly indicate its recorded IC50. Item: "CNc1cc(-c2cc(C(N)=O)n(-c3cc(C(F)(F)F)ccc3Cl)c2)ncn1"
331 nM

Note IC50 for the compound shown: "Cc1ccc(Cl)cc1-c1cn(-c2ccnc(N)n2)cc1C(N)=O"
220 nM

For the compound "CCc1ccc(Cl)cc1-c1cc(-c2ncnc3[nH]ccc23)[nH]c1C(N)=O" , give its measured IC50 value.
3 nM
